Recorded protein stability index for the following variants
B1: PBXIP1 (parent)
chain: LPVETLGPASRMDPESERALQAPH

Variants of: B1
assay-notes: protein stability index of a GFP-peptide fusion (GPS, HEK-293T) (PSI 1-6); higher = more stable;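 also: lentivirally expressed fusions sorted by FACS into six bins by GFP to DsRed ratio, PSI derived from sequencing read proportions per bin multiplied by bin number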
experimental-setup: c terminus: a fixed tail appended
reported-endpoint: protein stability index

- G7S: 5.42
- H24A: 4.44
- H24M: 4.23
- E15G: 3.99
- E17M: 3.9
- L1E: 4.68
- R11K: 4
- P2K: 3.95
- G7K: 5.55
- L20G: 4.46
- P14Y: 3.72
- G7Y: 4.63
- V3S: 4.83
- R18C: 4.12
- S16D: 4.54
- A9L: 3.18
- M12R: 4.33
- T5L: 3.9
- M12F: 4.15
- H24N: 4.61
- R18F: 4.07
- E15C: 3.82
- H24W: 4.07
- L20Y: 4.14
- P8K: 4.39
- T5F: 4.89
- P14G: 3.56
- P2Q: 4.47
- S16N: 4.54
- Q21W: 3.22
- R11G: 3.95
- G7L: 5.23
- R11F: 3.6
- E4D: 5.71
- H24S: 4.75
- R18N: 4.62
- S16I: 3.77
- E17Q: 4.06
- M12T: 4.45
- L1S: 5.25
- P8C: 5.37
- P23V: 3.92
- S16Q: 4.53
- P23K: 4.57
- M12S: 4.11
- E17N: 4.29
